# assay target: T1, chimeric Ig-EPOR protein (human; murine, UniProt P19235 25-250)
# T1 construct: extracellular domain; Secreted from COS-7 cells transfected with pcDNA3-IgG1-EPOR; major species about 59 kDa; also called IgG-EPOR; chimeric receptor; not shown: hinge region, CH2 and CH3 domains of the murine IgG1 heavy chain
# T1 sequence (looked up): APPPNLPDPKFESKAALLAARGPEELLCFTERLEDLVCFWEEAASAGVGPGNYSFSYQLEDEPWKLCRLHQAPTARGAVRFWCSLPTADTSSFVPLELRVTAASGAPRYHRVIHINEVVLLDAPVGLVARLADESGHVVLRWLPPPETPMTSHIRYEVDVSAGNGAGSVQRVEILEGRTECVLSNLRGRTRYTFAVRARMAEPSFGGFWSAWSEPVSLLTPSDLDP
# assay method text: phage ELISA, relative to ERB1
observed property: relative affinity (Rel. Aff., ERB1 = 1.0)

binder: NSDVTRRGWADHWREWNWDEYASTPTHPASHSSYLNPP (not shown: M13 phage pIII coat protein) [phage clone N5]
result: < 0.1
--
binder: ELDMLRGGGVGQSKESLRDEYDHKTSTPVPPNQKLPPP (not shown: M13 phage pIII coat protein) [phage clone N4]
result: < 0.1
--
binder: SVDVCNQGGVGRCNDGLGDEYASKPSYQEAPRYNPNLR (not shown: M13 phage pIII coat protein) [phage clone N9]
result: < 0.1
